- TEST_DETAILS: Pharmacokinetics of AT and NT in healthy volunteers after a single dose of 25 mg amitriptyline
- Assay type: in vivo, human
- RUN_CONDITIONS: both sexes, human, plasma, po, 25 mg, healthy volunteers, single oral 25 mg AT; CYP2C19 activity score 1 (n = 5); mean
MEASURED_PROPERTY: half-life (h)
Number in h, nothing else.

Task item: Field request: half-life | item: CN(C)CCC=C1c2ccccc2CCc2ccccc21 [Amitriptyline, amitriptyline]
Reply: 21.6

Task item: Same for CNCCC=C1c2ccccc2CCc2ccccc21 [Nortriptyline, nortriptyline]
Reply: 48.2

* * *

- TEST_DETAILS: Pharmacokinetics of AT and NT in healthy volunteers after a single dose of 25 mg amitriptyline
- Type: in vivo, human
- RUN_CONDITIONS: both sexes, human, plasma, po, 25 mg, healthy volunteers, single oral 25 mg AT, plasma; CYP2D6 activity 2.5 (n = 1); mean; read-out: AUCinf
MEASURED_PROPERTY: AUC(0-inf)
Form field: result (number plus unit)

Task item: AUC(0-inf) lookup needed for "CN(C)CCC=C1c2ccccc2CCc2ccccc21" , thanks.
Reply: 158 ng·h/mL

* * *

Please respond with reported Tmax for every item in the list.
- TEST_DETAILS: Pharmacokinetics of AT and NT in healthy volunteers after a single dose of 25 mg amitriptyline
- Format: in vivo, human
- RUN_CONDITIONS: both sexes, human, plasma, po, 25 mg, healthy volunteers, single oral 25 mg AT; CYP2C19 activity score 1.5 (n = 2); mean
Report the figure in h without appending any unit label.

Task item: // lookup Tmax for CN(C)CCC=C1c2ccccc2CCc2ccccc21 [Amitriptyline, amitriptyline]
Reply: 2

Task item: # repeat for CNCCC=C1c2ccccc2CCc2ccccc21 [Nortriptyline, nortriptyline]
Reply: 14.1

* * *

- TEST_DETAILS: Pharmacokinetics of AT and NT in healthy volunteers after a single dose of 25 mg amitriptyline
- Assay type: in vivo, human
- RUN_CONDITIONS: both sexes, human, plasma, po, 25 mg, healthy volunteers, single oral 25 mg AT, plasma; CYP2D6 activity 2 (n = 11); mean; read-out: AUCinf
MEASURED_PROPERTY: AUC(0-inf) (ng·h/mL)
Answer with a number only, understood to be in ng·h/mL.

Task item: What value of AUC(0-inf) has been recorded for this entry: "CN(C)CCC=C1c2ccccc2CCc2ccccc21"
Reply: 196

* * *

- TEST_DETAILS: Pharmacokinetics of AT and NT in healthy volunteers after a single dose of 25 mg amitriptyline
- Assay type: in vivo, human
- RUN_CONDITIONS: both sexes, human, plasma, po, 25 mg, healthy volunteers, single oral 25 mg AT; CYP2D6 activity 3 (n = 2); mean
What half-life was measured for each of the following?
Reply numerically in h, unit not repeated.

Task item: If you can, please state the reported half-life value of "CNCCC=C1c2ccccc2CCc2ccccc21" .
Reply: 26.9

Task item: Same question for "CN(C)CCC=C1c2ccccc2CCc2ccccc21" please.
Reply: 20.6

* * *

- TEST_DETAILS: Pharmacokinetics of AT and NT in healthy volunteers after a single dose of 25 mg amitriptyline
- Format: in vivo, human
- RUN_CONDITIONS: both sexes, human, plasma, po, 25 mg, healthy volunteers, single oral 25 mg AT; 0 active OCT1 alleles (n = 12)
- Experimental: In order to enrich the study sample with the less frequent functionally deficient OCT1 variants, participants were selected based on OCT1 genotype from an internal database at the Institute of Clinical Pharmacology of the University Medical Center Göttingen. […] The lower limit of quantification was 0.5 ng/ml for AT and 0.1 ng/ml for NT. […] Pharmacokinetic parameters were calculated by non-compartmental analysis using Phoenix 64 WinNonlin version 6.3 (Certara Inc., Princeton, NJ, United States). […]
MEASURED_PROPERTY: Tmax (h)
Value expressed in h; do not type the unit.

Task item: Entry under review: CN(C)CCC=C1c2ccccc2CCc2ccccc21 [Amitriptyline, amitriptyline] . Reported Tmax?
Reply: 3.4

Task item: Same thing, different compound: CNCCC=C1c2ccccc2CCc2ccccc21 [Nortriptyline, nortriptyline]
Reply: 6.2
